IC50 values by entry
tested on: A2780; experiment: Antiproliferative activity against human A2780 cells by MTT assay; type: functional, cell-based
// return numeric value only (unit: µM, not printed)

# return recorded IC50 for entry COc1ccc2nc3[nH]nc(N)c3cc2c1
35.8

Quick one: give measured IC50 for COc1cc2cc3c(N)n[nH]c3nc2cc1OC
19.6

Indicate its recorded IC50; the compound in question is COc1ccc2cc3c(N)n[nH]c3nc2c1
56.6

Look up and state reported IC50 for Nc1n[nH]c2nc3c(ccc4ccccc43)cc12
13.5

Give IC50 for Cc1ccc2[nH]c3nnc(N)c-3cc2c1
98.3

Please list IC50 recorded for the compound Nc1n[nH]c2nc3cc(Cl)ccc3cc12
59.9

Tell me its IC50 given Nc1[nH]nc2nc3ccccc3cc12 as the entry.
83.9
